Entry source: patent US7550468B2

So I've got a bunch of compounds here, and I need their Peak increased intracavernous pressure ΔICP (mmHg) values.
# Test system: intracavernous pressure
# assay-details: Intracavernous pressure and tumescence response in rabbits
# Format: in vivo
# test-settings: 2 mg/kg in rabbits
Express it in mmHg; write the number only.

## Input State the recorded Peak increased intracavernous pressure ΔICP (mmHg) for this entry: `CC(C)Cn1c(=O)n(C)c(=O)c2c1ncn2CCN1CCN(c2ncccn2)CC1`
## Output 23

## Input Same question for `COc1ccccc1N1CCN(CCn2cnc3c2c(=O)n(C)c(=O)n3C)CC1` please.
## Output 12

## Input Same question for `CC(C)Cn1c(=O)n(C)c(=O)c2c1ncn2CCN1CCN(C(=O)c2ccco2)CC1` please.
## Output 26

## Input Same question for `Cn1c(=O)c2c(ncn2CCN2CCN(c3ccccc3Cl)CC2)n(C)c1=O` please.
## Output 14

====

# System: Rabbit Corpus Cavernosal
# assay-details: Relaxation of phenylephrine precontracted rabbit corpus cavernosal strips
# Format: cell-based
# test-settings: Oryctolagus cuniculus
So I've got a bunch of compounds here, and I need their pIC50 values.
Scale for pIC50: -log10 of concentration given in mol/L; no unit attached.

## Input State the recorded pIC50 for this entry: Cn1c(=O)c2c(ncn2CCN2CCN(c3ccccc3Cl)CC2)n(C)c1=O [Compound 4]
## Output 7.16

## Input Same question for CC(C)Cn1c(=O)n(C)c(=O)c2c1ncn2CCN1CCN(c2ccccc2Cl)CC1 [Compound 14] please.
## Output 7.84

## Input Same question for CC(C)Cn1c(=O)n(C)c(=O)c2c1ncn2CCN1CCN(Cc2ccccc2)CC1 [Compound 17] please.
## Output 7.64

## Input Same question for Cc1ccccc1S(=O)(=O)N1CCN(CCn2cnc3c2c(=O)n(C)c(=O)n3CC(C)C)CC1 [Compound 26] please.
## Output 7.42

## Input Same question for Cn1c(=O)c2c(ncn2CCN2CCN(Cc3ccccc3)CC2)n(C)c1=O [Compound 7] please.
## Output 7.13

## Input Same question for CCCOc1ccc(C(N)=O)cc1CNCCn1cnc2c1c(=O)n(C)c(=O)n2CC(C)C [Compound 41] please.
## Output 8.30

====

# System: Rabbit Corpus Cavernosal
# assay-details: Relaxation of phenylephrine precontracted rabbit corpus cavernosal strips
# Type: cell-based
# test-settings: Oryctolagus cuniculus, pretreatment TEA 10 mM
observation-type: EC50 (µM)
Express it in µM; write the number only.

## Input Identify the measured EC50 of `CC(C)Cn1c(=O)n(C)c(=O)c2c1ncn2CCN1CCN(c2ccccc2Cl)CC1` for Rabbit Corpus Cavernosal.
## Output 9.18
